tested on: A-375; assay: Cytotoxicity activity against human A375 cells at 50 uM after 48 hrs by NRU assay; assay type: functional; settings: A-375, 48 h
Task for the reader: assign each of the following compounds its reported inhibition at 50 µM.
Give bare numbers, in %.

O=C(CC[C@H](NC(=O)OCc1ccccc1)C(=O)OCc1ccccc1)NNc1ccccc1OCc1ccccc1 | 69

// each compound listed below needs its inhibition at 50 µM
1. O=C(CC[C@H](NC(=O)OCc1ccccc1)C(=O)OCc1ccccc1)NNc1ccc(OCc2ccccc2)cc1
2. COC1=C(NC(CO)CO)C[C@@](O)(CO)CC1=O

Result:
[19, 20]

----------
Task for the reader: assign each of the following molecules its reported inhibition at 50 µM.
tested on: B16; assay: Cytotoxicity activity against mouse B16 cells at 50 uM after 24 hrs by NRU assay; assay type: functional; conditions: B16, 24 h
Numbers only, in %.

Here's what some known entries look like.
O=C(CC[C@H](NC(=O)OCc1ccccc1)C(=O)OCc1ccccc1)NNc1ccc(OCc2ccccc2)cc1 | 100
N[C@@H](CCC(=O)NNc1ccc(O)cc1)C(=O)O | 100
O=C(CC[C@H](NC(=O)OCc1ccccc1)C(=O)OCc1ccccc1)NNc1cccc(OCc2ccccc2)c1 | 100
COc1cc([C@@H]2c3cc4c(cc3[C@@H](O[C@@H]3O[C@@H]5CO[C@@H](C)O[C@H]5[C@H](O)[C@H]3O)[C@H]3COC(=O)[C@H]23)OCO4)cc(OC)c1O [ETOPOSIDE] | 100
O=C(CC[C@H](NC(=O)OCc1ccccc1)C(=O)OCc1ccccc1)NNc1ccccc1OCc1ccccc1 | 96
N[C@@H](CCC(=O)NNc1cccc(O)c1)C(=O)O | 100

Form: molecule = `COC1=C(NC(CO)CO)C[C@@](O)(CO)CC1=O` ; inhibition at 50 µM = 34

----------
tested on: A-375; test: Cytotoxicity activity against human A375 cells after 24 hrs by NRU assay; type: functional, cell-based; conditions: A-375, 24 h
observed.property: IC50

Here's what some known entries look like.
O=C(CC[C@H](NC(=O)OCc1ccccc1)C(=O)OCc1ccccc1)NNc1ccc(OCc2ccccc2)cc1 | > 50 µM
COC1=C(NC(CO)CO)C[C@@](O)(CO)CC1=O [MYCOSPORINE SERINOL] | > 50 µM
COc1cc([C@@H]2c3cc4c(cc3[C@@H](O[C@@H]3O[C@@H]5CO[C@@H](C)O[C@H]5[C@H](O)[C@H]3O)[C@H]3COC(=O)[C@H]23)OCO4)cc(OC)c1O [ETOPOSIDE] | 19 µM
N[C@@H](CCC(=O)NNc1cccc(O)c1)C(=O)O | > 50 µM
O=C(CC[C@H](NC(=O)OCc1ccccc1)C(=O)OCc1ccccc1)NNc1cccc(OCc2ccccc2)c1 | 28 µM

// each molecule listed below needs its IC50
1. O=C(CC[C@H](NC(=O)OCc1ccccc1)C(=O)OCc1ccccc1)NNc1ccccc1OCc1ccccc1
2. N[C@@H](CCC(=O)NNc1ccc(O)cc1)C(=O)O [XANTHODERMINE]

Result:
29 µM
> 50 µM

----------
test system: A-375; assay: Cytotoxicity activity against human A375 cells at 50 uM after 48 hrs by NRU assay; type: functional; settings: A-375, 48 h
Task for the reader: assign each of the following molecules its reported inhibition at 50 µM.
One number for each entry, in %.

N[C@@H](CCC(=O)NNc1cccc(O)c1)C(=O)O | 14
COc1cc([C@@H]2c3cc4c(cc3[C@@H](O[C@@H]3O[C@@H]5CO[C@@H](C)O[C@H]5[C@H](O)[C@H]3O)[C@H]3COC(=O)[C@H]23)OCO4)cc(OC)c1O [ETOPOSIDE] | 100
O=C(CC[C@H](NC(=O)OCc1ccccc1)C(=O)OCc1ccccc1)NNc1cccc(OCc2ccccc2)c1 | 73

Could you now consider this next molecule?
Form: molecule = `N[C@@H](CCC(=O)NNc1ccc(O)cc1)C(=O)O` ; inhibition at 50 µM = 31

Source: ChEMBL document CHEMBL1208690
